Each recorded value in this set is attributed to patent US7244727B2.

Parameter: melting point. Scope: all listed entries.

MOL	ASSAY_READOUT	MEASURED_RESULT
CC1(C)Oc2ncnc(N)c2N=C1c1ccc([C@H]2CC[C@H](CCO)CC2)cc1	melting point	207 to 208 °C
CC1(C)Oc2ncnc(N)c2N=C1c1ccc(-c2cccnc2)cc1	melting point	231 to 232 °C
CC1(C)Oc2ncnc(N)c2N=C1c1cccc(OCc2ccccc2)c1	melting point	130 to 131 °C

[in] Could you please provide reported melting point for "CC1(C)Oc2ncnc(N)c2N=C1c1cccc(OCC2CCCCC2)c1" ? Thanks!
[out] 151 to 152 °C

----------
Catalogue of compounds with associated melting point

[in] Look up and report measured melting point for this entry: "CC1(C)Oc2ncnc(N)c2N=C1c1ccc([C@H]2CC[C@H](CC(=O)N3CC[C@@H](O)C3)CC2)cc1"
[out] 231 to 232 °C

[in] Identify measured melting point associated with "CC1(C)Oc2ncnc(N)c2N=C1c1ccc([C@H]2CC[C@H](C(=O)N3C[C@@H](O)[C@@H](O)C3)CC2)cc1"
[out] 220 to 240 °C

[in] Supply reported melting point belonging to this compound: "CC1(C)Oc2ncnc(N)c2N=C1c1ccc([C@H]2CC[C@H](Cc3cc(O)on3)CC2)cc1"
[out] 173 to 175 °C

[in] Name the recorded melting point of the compound listed here: "Cc1nc(N)c2c(n1)OC(C)(C)C(c1ccc([C@H]3CC[C@H](CCC(=O)N4C[C@@H](O)[C@@H](O)C4)CC3)cc1)=N2"
[out] 230 to 231 °C

[in] Read the entry "CCOC(=O)N1CCC(NC[C@H]2CC[C@H](c3ccc(C4=Nc5c(N)ncnc5OC4(C)C)cc3)CC2)CC1" and write its reported melting point.
[out] 127 to 135 °C

[in] Let me know recorded melting point for "Cc1nc(N)c2c(n1)OC(C)(C)C(c1ccc([C@H]3CC[C@H](CCC(=O)Nc4nn[nH]n4)CC3)cc1)=N2" , thanks.
[out] > 250 °C
